Values were extracted from patent US20170253607A1.

# Assay info: Evaluation of total body clearance (CLtot), intravenous administration
# Type: in vivo, Sprague-Dawley (SD)
# Test context: rat (SD), intravenous administration 0.5-10 mg/kg; CLtot = dose/AUC
Reported metric: rat_CLt (mL/min/kg)

{"Compound": "COc1ccc(S(=O)(=O)N(CC2CCCC2)CC(O)C(Cc2ccc(OCc3cc(C(F)(F)F)ccc3-n3nc4c(c3C(=O)O)CC(C)(C)CC4)cc2)NC(=O)OC2COC3(C)OCCC23)cc1 (centres unmarked)", "Value": 0.119}
{"Compound": "COc1ccc(S(=O)(=O)N(CC(C)C)CC(O)C(Cc2ccc(N(C)Cc3cccc(-c4sc5c(c4C(=O)O)CC(C)(C)CC5)c3C)cc2)NC(=O)OC2COC3(C)OCCC23)cc1 (centres unmarked)", "Value": 1.08}
{"Compound": "COc1ccc(S(=O)(=O)N(CC(C)C)CC(O)C(Cc2ccc(N(C)Cc3occc3-c3sc4c(c3C(=O)O)CC(C)(C)CC4)cc2)NC(=O)OC2COC3(C)OCCC23)cc1 (centres unmarked)", "Value": 17.3}
{"Compound": "COc1ccc(S(=O)(=O)N(CC2CCCC2)CC(O)C(Cc2ccc(OCc3ccccc3-n3nc4c(c3C(=O)O)CC(C(F)(F)F)CC4)cc2)NC(=O)OC2COC3(C)OCCC23)cc1 (centres unmarked)", "Value": 0.111}
{"Compound": "COc1ccc(S(=O)(=O)N(CC(C)C)CC(O)C(Cc2ccc(OC3CCC(c4ccc(C(F)(F)F)cc4-c4sc5c(c4C(=O)O)CC(C)(C)CC5)C3)cc2)NC(=O)OC2COC3(C)OCCC23)cc1 (centres unmarked)", "Value": 3.31}
